# PROTOCOL: MTT cellular viability assay, MM.1S
# Format: cell-based
# RUN_CONDITIONS: human, MM.1S cells, 30 μg/mL, read-out: percentage of viable cells
MEASURED_QUANTITY: viability at 16 h, 30 μg/mL

Example entries begin here.
COc1ccc(C(=O)CCc2ccc(O)cc2)c(O)c1: ~55%
COc1ccc(CCC(=O)c2ccc(O)cc2O)cc1: ~65%

Proceed to the following item.
Reported viability at 16 h, 30 μg/mL for O=C(CCc1ccc(O)cc1)c1ccc(O)cc1O : what is it? ~80%

---

# PROTOCOL: MTT cellular viability assay, OPM2
# Type: cell-based
# RUN_CONDITIONS: human, OPM2 cells, 1 μg/mL, read-out: percentage of viable cells
MEASURED_QUANTITY: viability at 16 h, 1 μg/mL

COc1ccc(CCC(=O)c2ccc(O)cc2O)cc1: ~85%
COc1ccc(C(=O)CCc2ccc(O)cc2)c(O)c1: ~100%

Proceed to the following item.
Reported viability at 16 h, 1 μg/mL for O=C(CCc1ccc(O)cc1)c1ccc(O)cc1O : what is it? ~90%

---

Entries annotated with measured viability at 16 h, 1 μg/mL
# PROTOCOL: MTT cellular viability assay, MM.1S
# Type: cell-based
# RUN_CONDITIONS: human, MM.1S cells, 1 μg/mL, read-out: percentage of viable cells

Example entries begin here.
COc1ccc(CCC(=O)c2ccc(O)cc2O)cc1: ~100%
COc1ccc(C(=O)CCc2ccc(O)cc2)c(O)c1: ~95%

Proceed to the following item.
Reported viability at 16 h, 1 μg/mL for O=C(CCc1ccc(O)cc1)c1ccc(O)cc1O : what is it? ~105%

// data source = patent US20230293614A1
